Give IC50 for every item shown.
- tgt: T1, recombinant integrin α4β1 (R&D Systems, 5397-A3-050 [sic]) (UniProt P13612 34-970; P05556 21-728)
- T1 construct: coated on the ELISA plate at 0.5 µg/ml; the printed catalogue number is the same as for α4β7; also called a4b1; α4β1 integrin
- assayMethodText: α4β1-VCAM-1 competition ELISA
Bridges are numbered along the chain shown (N, C = ends). [ ]: non-standard residue; d: D form. dPhe(4-CH2NH2) = NCc1ccc(C[C@@H](N)C(=O)O)cc1; Phe(4-CH2NH2) = NCc1ccc(C[C@H](N)C(=O)O)cc1; d(β3hK) = NCCCC[C@@H](N)CC(=O)O; β3hK = NCCCC[C@H](N)CC(=O)O
Answer with a number only, understood to be in µM.

Inquiry: If you can, please state the reported IC50 value of PF[d(β3hK)]LDI (bridge N-C; not fully specified (bridges); printed as Pro Phe X Leu Asp Ile, macrocycle of formula (I)) [Compound No. 220] .
Reply text: 1.74

Inquiry: Using the record for P[dR][β3hK]LDT (bridge N-C; not fully specified (bridges); printed as Pro X1 X2 Leu Asp Thr, macrocycle of formula (I)) [Compound No. 217] , report its IC50.
Reply text: 1.09

Inquiry: Query (binder): cyclo(P[Phe(4-CH2NH2)][β3hK]LDV) (also: macrocycle closed by non-peptide linker -NH-CH(CH3)-CH(C(O)NH-tBu)- between Pro1 N and C-terminal C, macrocycle of formula (I)) [Compound No. 254] ; field requested: IC50
Reply text: 1.8

Inquiry: Given PXGLDT (X^y (4-aminomethyl-Phe), macrocycle of formula (I)) [Compound No. 165] , state its recorded IC50.
Reply text: 2.92

Inquiry: Please look up its IC50: PXVLDT (X^y Tyr(OAllyl); X^z dVal, macrocycle of formula (I)) [Compound No. 166]
Reply text: 1.38

Inquiry: Please report the recorded IC50 for P[Phe(4-CH2NH2)][β3hK]LDI (bridge N-C; not fully specified (bridges); printed as Pro X1 X2 Leu Asp Ile, macrocycle of formula (I)) [Compound No. 215] .
Reply text: 0.413

Inquiry: I'd like to know its IC50. The binder in question is PXSLDT (X^y Tyr(OAllyl); X^z dSer, macrocycle of formula (I)) [Compound No. 167]
Reply text: 2

Inquiry: Entry under review: cyclo(P[dPhe(4-CH2NH2)][β3hK]LDI) (also: macrocycle closed by non-peptide linker -NH-CH(CH3)-CH(C(O)NH-tBu)- between Pro1 N and C-terminal C, macrocycle of formula (I)) [Compound No. 253] . Reported IC50?
Reply text: 1.09

Inquiry: Give the measured IC50 of PR[β3hK]LDT (bridge N-C; not fully specified (bridges); also: macrocycle closed by non-peptide linker -NH-CH(CH3)-CH(C(O)NH-tBu)- between Pro1 N and C-terminal C, macrocycle of formula (I)) [Compound No. 231] .
Reply text: 0.993

Inquiry: Recorded IC50 for PYXXDT (X^z dPip; X^1 tertbutylAla, macrocycle of formula (I)) [Compound No. 150] , please?
Reply text: 0.447
